Taken from paper PMC6515519.

- assayed.target: UniProt P33033
- Sequence (P33033 whole entry): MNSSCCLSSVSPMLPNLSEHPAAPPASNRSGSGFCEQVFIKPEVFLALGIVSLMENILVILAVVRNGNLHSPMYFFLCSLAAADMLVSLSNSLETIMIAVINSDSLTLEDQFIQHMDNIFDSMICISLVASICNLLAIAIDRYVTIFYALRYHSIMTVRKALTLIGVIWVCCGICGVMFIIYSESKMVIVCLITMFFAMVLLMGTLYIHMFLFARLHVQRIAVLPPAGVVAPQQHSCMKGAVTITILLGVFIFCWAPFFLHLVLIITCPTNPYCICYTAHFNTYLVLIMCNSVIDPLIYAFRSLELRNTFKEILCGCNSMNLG
- measurement.notes: β-galactosidase cAMP reporter assay, agonist pharmacology in HEK293 cells stably expressing mMC3R
- cond: β-galactosidase cAMP, HEK293; mean ± SEM; apparent EC50 for partial agonists
pEC50: −log10 of the molar value. Non-standard residues stand in square brackets, D forms with d. Residues, ends and D or L forms follow the SMILES beside them. dPhe(4-CF3) = N[C@H](Cc1ccc(C(F)(F)F)cc1)C(=O)O; dPhe(4-Br) = N[C@H](Cc1ccc(Br)cc1)C(=O)O; dPhe(4-Me) = Cc1ccc(C[C@@H](N)C(=O)O)cc1; Tic = O=C(O)[C@@H]1Cc2ccccc2CN1
parameter: pEC50

As a guide, the following entries are already answered.
CC(=O)N[C@@H](Cc1c[nH]cn1)C(=O)N[C@@H](CCCNC(=N)N)C(=O)N[C@H](Cc1ccc(C(F)(F)F)cc1)C(=O)N1Cc2ccccc2C[C@H]1C(N)=O [KNS2-23-6, Ac-His-Arg-(pCF3)DPhe-Tic-NH2] (Ac-HR[dPhe(4-CF3)][Tic]-NH2) ... 7.05
CC(=O)N[C@@H](Cc1c[nH]cn1)C(=O)N[C@@H](CCCNC(=N)N)C(=O)N[C@H](Cc1ccc(C)cc1)C(=O)N1Cc2ccccc2C[C@H]1C(N)=O [KNS2-23-7, Ac-His-Arg-(pMe)DPhe-Tic-NH2] (Ac-HR[dPhe(4-Me)][Tic]-NH2) ... 6.96

[A] CC(=O)N[C@@H](Cc1c[nH]cn1)C(=O)N[C@@H](CCCNC(=N)N)C(=O)N[C@H](Cc1ccc(Br)cc1)C(=O)N1Cc2ccccc2C[C@H]1C(N)=O [KNS2-22-3, Ac-His-Arg-(pBr)DPhe-Tic-NH2] (Ac-HR[dPhe(4-Br)][Tic]-NH2)
[B] CC(=O)N[C@@H](Cc1c[nH]cn1)C(=O)N[C@@H](CCCNC(=N)N)C(=O)N[C@H](Cc1ccccc1)C(=O)N1Cc2ccccc2C[C@H]1C(N)=O [KNS3-10, Ac-His-Arg-DPhe-Tic-NH2] (Ac-HR[dF][Tic]-NH2)
Request: Param pair: A , B . Output: the one whose pEC50 is numerically greater. Kindly state the label of the option you pick.
Response: A
(A: 7.05, B: 6.05)
